Taken from patent US20240408169A1.

# subject.of.test: CyclinE1/CDK2 (Homo sapiens, UniProt P24864)
# Construct: purchased Eurofins, discovery 14-475
# assay.name: Fluorescence Polarization (FP) competitive binding assay, Cyclin E1/Cdk2
# details: 10 nM Cyclin E1/Cdk2, 2 nM FAM probe; average of 2-3 independent experiments; read-out: Cyclin E FP IC50
*1 amine or outer side, *2 acyl side, *3 side chain or, on linkers, in order; H or OH if unused. Where a SMILES comes first, the peptide text is derived from it. Bridges are numbered along the chain shown (N, C = ends). [ ]: non-standard residue; d: D form. The star is where a group is joined. NMehhhLys(Me) = CN([C@@H](CCCCCCCN(C)[*:3])C(=O)[*:2])[*:1]; X22 = CN([C@@H](Cc1cc(Cl)ccc1-c1cnn(C)c1)C(=O)[*:2])[*:1]; NMe3Pal(2-OMe,5-Cl) = CN[C@@H](Cc1cc(Cl)cnc1OC)C(=O)O; cBuCO(3,3-F2-1-CF3) = O=C(C1(C(F)(F)F)CC(F)(F)C1)*; Pro(trans-4-F) = O=C(O)[C@@H]1C[C@@H](F)CN1; Pivaloyl(3,3,3-F3) = CC(C)(C(=O)*)C(F)(F)F; Gly(cPr) = N[C@H](C(=O)O)C1CC1
Please provide measured pIC50 for the entries that follow.
Numbers only, as −log10 of the molar value.

Would you please look over these solved cases?
Query block: Name the recorded pIC50 of the compound listed here: CC(C)C[C@@H]1NC(=O)[C@@H](N(C)C(=O)[C@@H](NC(=O)[C@@H]2C[C@@H](F)CN2C(=O)C2(C(F)(F)F)CCC2)C2CC2)CC=CCCCCN(C)C(=O)[C@H](Cc2cc(F)cnc2OC2CC2)N(C)C1=O [Example 133]
Result block: 6.47

Query block: Name the recorded pIC50 of the compound listed here: CC(C)C[C@@H]1NC(=O)[C@@H](N(C)C(=O)[C@@H](NC(=O)[C@@H]2C[C@@H](F)CN2C(=O)C2(C(F)(F)F)CC(F)(F)C2)C2CC2)CCCCCCCN(C)C(=O)[C@H](Cc2cc(Cl)ccc2-c2cnn(C)c2)N(C)C1=O [Example 49] ({cBuCO(3,3-F2-1-CF3)}-[Pro(trans-4-F)][Gly(cPr)][NMehhhLys(Me)]L[X22]; lactam 3-C)
Result block: 6.46

---
Query block: Name the recorded pIC50 of the compound listed here: COc1ncc(Cl)cc1C[C@H]1C(=O)N(C)CCCCCCC[C@H](N(C)C(=O)[C@@H](NC(=O)[C@@H]2C[C@@H](F)CN2C(=O)C(C)(C)C(F)(F)F)C2CC2)C(=O)N[C@@H](CC(C)C)C(=O)N1C [Example 268] ({Pivaloyl(3,3,3-F3)}-[Pro(trans-4-F)][Gly(cPr)][NMehhhLys(Me)]L[NMe3Pal(2-OMe,5-Cl)]; lactam 3-C)
Result block: 7.00

====

# subject.of.test: CyclinE1/CDK2 (Homo sapiens)
# Construct: purchased Eurofins, discovery 14-475
# assay.name: Fluorescence Polarization (FP) competitive binding assay, Cyclin E1/Cdk2;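 also: readings taken after two-hour equilibration at room temperature in HEPES buffer with NaCl, DTT, NP-40 and BSA, IC50 fitted from eight-concentration serial dilution series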
*1 amine or outer side, *2 acyl side, *3 side chain or, on linkers, in order; H or OH if unused. Where a SMILES comes first, the peptide text is derived from it. Bridges are numbered along the chain shown (N, C = ends). [ ]: non-standard residue; d: D form. The star is where a group is joined. X123 = CN([C@@H](Cc1cc(Cl)ccc1-c1ccc[nH]c1=O)C(=O)[*:2])[*:1]; X83 = CN([C@@H](Cc1cc(Cl)ccc1-c1cnn2c1COCC2)C(=O)[*:2])[*:1]; NMe3Pal(2-OiBu,5-Cl) = CN[C@@H](Cc1cc(Cl)cnc1OCC(C)C)C(=O)O; NMehhhLys(Me) = CN([C@@H](CCCCCCCN(C)[*:3])C(=O)[*:2])[*:1]; X139 = Cc1[nH]ncc1-c1ccc(Cl)cc1C[C@@H](C(=O)[*:2])N(C)[*:1]; X180 = CN([C@@H](Cc1cc(F)ccc1-c1cnn2c1CCC2)C(=O)[*:2])[*:1]; X2 = CN([C@@H](Cc1cc(Cl)ccc1-c1ccc2ncnn2c1)C(=O)[*:2])[*:1]; X67 = Cc1c(-c2ccc(Cl)cc2C[C@@H](C(=O)[*:2])N(C)[*:1])cnn1C; X22 = CN([C@@H](Cc1cc(Cl)ccc1-c1cnn(C)c1)C(=O)[*:2])[*:1]; NMe(hhhLys) = CN([C@@H](CCCCCCCN[*:3])C(=O)[*:2])[*:1]; Oxane2carbonyl(2R-CF3) = O=C([C@@]1(C(F)(F)F)CCCCO1)*; Cyclobutanecarbonyl(1-CF3) = O=C(C1(C(F)(F)F)CCC1)*; cBuCO(3,3-F2-1-CF3) = O=C(C1(C(F)(F)F)CC(F)(F)C1)*; Pro(trans-4-F) = O=C(O)[C@@H]1C[C@@H](F)CN1; Pivaloyl(3,3,3-F3) = CC(C)(C(=O)*)C(F)(F)F; Gly(cPr) = N[C@H](C(=O)O)C1CC1
Entry class follows IC50: band A (below 0.2 µM), band B (0.2 µM to below 1 µM), band C (1 µM or more)

Example entries and their recorded answers appear below.
Query block: Class (by measured IC50) for Cc1c(-c2ccc(Cl)cc2C[C@H]2C(=O)N(C)CCCCCCC[C@H](N(C)C(=O)[C@@H](NC(=O)[C@@H]3C[C@@H](F)CN3C(=O)C3(C(F)(F)F)CC(F)(F)C3)C3CC3)C(=O)N[C@@H](CC(C)C)C(=O)N2C)cnn1C [Example 234] ({cBuCO(3,3-F2-1-CF3)}-[Pro(trans-4-F)][Gly(cPr)][NMehhhLys(Me)]L[X67]; lactam 3-C)
Result block: band B

Query block: Class (by measured IC50) for CC(C)COc1ncc(Cl)cc1C[C@H]1C(=O)N(C)CCCCCCC[C@H](N(C)C(=O)[C@@H](NC(=O)[C@@H]2C[C@@H](F)CN2C(=O)[C@@]2(C(F)(F)F)CCCCO2)C2CC2)C(=O)N[C@@H](CC(C)C)C(=O)N1C [Example 229] ({Oxane2carbonyl(2R-CF3)}-[Pro(trans-4-F)][Gly(cPr)][NMehhhLys(Me)]L[NMe3Pal(2-OiBu,5-Cl)]; lactam 3-C)
Result block: band A

Query block: Class (by measured IC50) for CC(C)C[C@@H]1NC(=O)[C@@H](N(C)C(=O)[C@@H](NC(=O)[C@@H]2C[C@@H](F)CN2C(=O)C2(C(F)(F)F)CC(F)(F)C2)C2CC2)CCCCCCCN(C)C(=O)[C@H](Cc2cc(Cl)ccc2-c2ccc3ncnn3c2)N(C)C1=O [Example 232] ({cBuCO(3,3-F2-1-CF3)}-[Pro(trans-4-F)][Gly(cPr)][NMehhhLys(Me)]L[X2]; lactam 3-C)
Result block: band C

Query block: Class (by measured IC50) for Cc1[nH]ncc1-c1ccc(Cl)cc1C[C@H]1C(=O)N(C)CCCCCCC[C@H](N(C)C(=O)[C@@H](NC(=O)[C@@H]2C[C@@H](F)CN2C(=O)C2(C(F)(F)F)CC(F)(F)C2)C2CC2)C(=O)N[C@@H](CC(C)C)C(=O)N1C [Example 211] ({cBuCO(3,3-F2-1-CF3)}-[Pro(trans-4-F)][Gly(cPr)][NMehhhLys(Me)]L[X139]; lactam 3-C)
Result block: band C

Query block: Class (by measured IC50) for CC(C)C[C@@H]1NC(=O)[C@@H](N(C)C(=O)[C@@H](NC(=O)[C@@H]2C[C@@H](F)CN2C(=O)C2(C(F)(F)F)CC(F)(F)C2)C2CC2)CCCCCCCNC(=O)[C@H](Cc2cc(F)ccc2-c2cnn3c2CCC3)N(C)C1=O [Example 214] ({cBuCO(3,3-F2-1-CF3)}-[Pro(trans-4-F)][Gly(cPr)][NMe(hhhLys)]L[X180]; lactam 3-C)
Result block: band B

Query block: Class (by measured IC50) for CC(C)C[C@@H]1NC(=O)[C@@H](N(C)C(=O)[C@@H](NC(=O)[C@@H]2C[C@@H](F)CN2C(=O)C2(C(F)(F)F)CC(F)(F)C2)C2CC2)CCCCCCCN(C)C(=O)[C@H](Cc2cc(Cl)ccc2-c2cnn3c2COCC3)N(C)C1=O [Example 233] ({cBuCO(3,3-F2-1-CF3)}-[Pro(trans-4-F)][Gly(cPr)][NMehhhLys(Me)]L[X83]; lactam 3-C)
Result block: band C

Query block: Class (by measured IC50) for CC(C)C[C@@H]1NC(=O)[C@@H](N(C)C(=O)[C@@H](NC(=O)[C@@H]2C[C@@H](F)CN2C(=O)C(C)(C)C(F)(F)F)C2CC2)CCCCCCCN(C)C(=O)[C@H](Cc2cc(Cl)ccc2-c2cnn(C)c2)N(C)C1=O [Example 204] ({Pivaloyl(3,3,3-F3)}-[Pro(trans-4-F)][Gly(cPr)][NMehhhLys(Me)]L[X22]; lactam 3-C)
Result block: band A

Query block: Class (by measured IC50) for CC(C)C[C@@H]1NC(=O)[C@@H](N(C)C(=O)[C@@H](NC(=O)[C@@H]2C[C@@H](F)CN2C(=O)C2(C(F)(F)F)CC(F)(F)C2)C2CC2)CCCCCCCN(C)C(=O)[C@H](Cc2cc(Cl)ccc2-c2ccc[nH]c2=O)N(C)C1=O [Example 208] ({cBuCO(3,3-F2-1-CF3)}-[Pro(trans-4-F)][Gly(cPr)][NMehhhLys(Me)]L[X123]; lactam 3-C)
Result block: band C

---
Query block: Class (by measured IC50) for CC(C)COc1ncc(Cl)cc1C[C@H]1C(=O)N(C)CCCCCCC[C@H](N(C)C(=O)[C@@H](NC(=O)[C@@H]2C[C@@H](F)CN2C(=O)C2(C(F)(F)F)CCC2)C2CC2)C(=O)N[C@@H](CC(C)C)C(=O)N1C [Example 230] ({Cyclobutanecarbonyl(1-CF3)}-[Pro(trans-4-F)][Gly(cPr)][NMehhhLys(Me)]L[NMe3Pal(2-OiBu,5-Cl)]; lactam 3-C)
Result block: band A
